Field: binding signal. Provide a value for each of the sequences that follow.
Study System: MBP-FoxP3dN (Mus musculus, UniProt Q99JB6 188-423)
Sequence: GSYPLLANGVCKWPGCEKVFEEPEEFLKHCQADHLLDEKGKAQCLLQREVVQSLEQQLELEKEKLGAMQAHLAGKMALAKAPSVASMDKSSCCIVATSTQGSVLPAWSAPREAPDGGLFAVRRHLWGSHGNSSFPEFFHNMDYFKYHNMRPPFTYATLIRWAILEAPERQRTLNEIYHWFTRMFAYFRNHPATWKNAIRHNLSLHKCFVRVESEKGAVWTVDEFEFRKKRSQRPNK
Assay Info: PD-seq (MBP pull-down with sequencing); 20 mM Tris-HCl pH 7.5, 100 mM NaCl, 1.5 mM MgCl2, 0.4 uM protein, 0.1 uM dsDNA library, 30 min, room temperature, amylose pull-down; high values mean tight binding
Reported Conditions: protein: recombinant; tags: His6-MBP; chain copies: 2; dsDNA, one strand shown
Over roughly 16,000 sequences, “rpm ratio (pull-down/input)” has its median near 0.5; the highest 2% begin near 5.5. The entries come from a sample that favours the highest values as a whole.

Example cases with answers are listed next.
GATGATTGTTCTCCCAGCTGATGAATTAGTGCGATCGAGTAAACAAATTTTCCTAATCTTTCTGTTCAAGCGCCATCTAC: 0.851 RPM ratio (pull-down/input)
GATGATTGTTCTCCCAGCTGATGAATTTGTGTAGTCGAGTAAACAAATTTTCCTAATCTTTCTGTTCAAGCGCCATCTAC: 6.14 RPM ratio (pull-down/input)
GATGATTGTTCTCCCAGCTGATGAATTATGTTAGTCGAGTAAACAAATTTTCCTAATCTTTCTGTTCAAGCGCCATCTAC: 5.81 RPM ratio (pull-down/input)
GATGATTGTTCTCCCAGCTGATGAATTTTATTAGTCGAGTAAACAAATTTTCCTAATCTTTCTGTTCAAGCGCCATCTAC: 4.27 RPM ratio (pull-down/input)

Required: binding signal, one value per sequence below.
1. GATGATTGTTCTCCCAGCTGATGAATTTGGGTTGTCGAGTAAACAAATTTTCCTAATCTTTCTGTTCAAGCGCCATCTAC
2. GATGATTGTTCTCCCAGCTGATGAATTATTTTAGTCGAGTAAACAAATTTTCCTAATCTTTCTGTTCAAGCGCCATCTAC
3. GATGATTGTTCTCCCAGCTGATGAATTGCTACCGTCGAGTAAACAAATTTTCCTAATCTTTCTGTTCAAGCGCCATCTAC
4. GATGATTGTTCTCCCAGCTGATGAATTCAATTGTTCGAGTAAACAAATTTTCCTAATCTTTCTGTTCAAGCGCCATCTAC
5. GATGATTGTTCTCCCAGCTGATGAATTTTTGTAGTCGAGTAAACAAATTTTCCTAATCTTTCTGTTCAAGCGCCATCTAC

Response:
1: 1.1 RPM ratio (pull-down/input); 2: 0.414 RPM ratio (pull-down/input); 3: 0.615 RPM ratio (pull-down/input); 4: 3.36 RPM ratio (pull-down/input); 5: 0.53 RPM ratio (pull-down/input)

Would you mind listing binding signal for each of the following sequences?
1. GATGATTGTTCTCCCAGCTGATGAATTTATTTAGTCGAGTAAACAAATTTTCCTAATCTTTCTGTTCAAGCGCCATCTAC
2. GATGATTGTTCTCCCAGCTGATGAATTAGTTATGTCGAGTAAACAAATTTTCCTAATCTTTCTGTTCAAGCGCCATCTAC
3. GATGATTGTTCTCCCAGCTGATGAATTTCTGTAGTCGAGTAAACAAATTTTCCTAATCTTTCTGTTCAAGCGCCATCTAC

Response:
1. 5.5 RPM ratio (pull-down/input)
2. 3.79 RPM ratio (pull-down/input)
3. 0.385 RPM ratio (pull-down/input)
